Measured chromatographic logP, listed per entry for reference.
# protocol.description: Measurement of Log P values by HPLC on reversed phase columns (EEC directive 79/831 Annex V.A8)
# Format: physicochemical
# applied.conditions: reversed phase HPLC column, method [a]: LC-UV, acidic range, 0.1% formic acid in water and acetonitrile as eluent
measure: chromatographic logP

- given.smiles: "Cc1cc(Br)ccc1C(F)(F)CNC(=O)c1c(Oc2cccc(C(F)(F)F)c2)nnc2c1CCC2"
  measure: "chromatographic logP"
  result: 4.17
- given.smiles: "O=C(NCC(F)(F)c1ccc(Cl)cc1Cl)c1c(Oc2cccc(Cl)c2F)nnc2c1CCC2"
  measure: "chromatographic logP"
  result: 3.94
- given.smiles: "Cc1ccc(C(F)(F)CNC(=O)c2c(Oc3cccc(Br)c3F)cnc3ccccc23)c(C)c1"
  measure: "chromatographic logP"
  result: 4.43
- given.smiles: "Cc1ccc(C(F)(F)CNC(=O)c2c(Oc3ccc(Cl)cc3)nnc3ccccc23)c(C)c1"
  measure: "chromatographic logP"
  result: 4.23
- given.smiles: "CC1(C)COc2c(nnc(Oc3cccc(C(F)(F)F)c3)c2C(=O)O)O1"
  measure: "chromatographic logP"
  result: 1.82
- given.smiles: "Cc1ccc(C(F)(F)CNC(=O)c2c(Oc3cccc(C(F)(F)F)c3)nnc3cc(C)ccc23)c(C)c1"
  measure: "chromatographic logP"
  result: 4.45
- given.smiles: "Cc1ccc(C(F)(F)CNC(=O)c2c(Cl)nnc3ccccc23)c(C)c1"
  measure: "chromatographic logP"
  result: 3.23
- given.smiles: "COCc1ccc(C(F)(F)CNC(=O)c2c(Oc3cccc(C(F)(F)F)c3)nnc3ccccc23)c(Cl)c1"
  measure: "chromatographic logP"
  result: 4.12

* * *

# protocol.description: Measurement of Log P values by HPLC on reversed phase columns (EEC directive 79/831 Annex V.A8)
# Assay type: physicochemical
# applied.conditions: reversed phase HPLC column, method [a]: LC-UV, acidic range, 0.1% formic acid in water and acetonitrile as eluent
Measured chromatographic logP, listed per entry for reference.

- molecule: "O=C(O)c1c(Oc2cccc(C(F)(F)F)c2)nnc2ccsc12 [1-57]"
  chromatographic logP: 2.39
- molecule: "O=C(N[C@H]1CCS(=O)(=O)c2ccccc21)c1c(Oc2cccc(C(F)(F)F)c2)nnc2ccccc12 [I-174]"
  chromatographic logP: 2.98
- molecule: "Cc1cc(C(F)F)ccc1[C@@H](F)CNC(=O)c1c(Oc2cccc(Cl)c2)nnc2ccccc12 (racemic) [I-049]"
  chromatographic logP: 3.84
- molecule: "Cc1ccc(C(F)(F)CNC(=O)c2c(Oc3cccc(Br)c3F)nnc3c2CCCC3)c(C)c1 [I-128]"
  chromatographic logP: 4.05

* * *

# System: Colletotrichum lindemuthianum
# protocol.description: B-8. Colletotrichum lindemuthianum in vitro cell test
# Format: cell-based
# applied.conditions: 144 h, 20 ppm of active ingredient, 6 days incubation, liquid culture, absorbance, read-out: efficacy (inhibition of fungal growth)

- molecule: "Cc1cccc(Oc2nnc3ccccc3c2C(=O)NCC(F)(F)c2ccc(Cl)cc2)c1 [I-014]"
  target.of.assay: "Colletotrichum lindemuthianum"
  inhibition at 20 ppm: "90 to 100%"
- molecule: "O=C(NCC(F)(F)c1ccc(Cl)cc1Cl)c1c(Oc2cccc(Cl)c2)nnc2c1CCCC2 [I-192]"
  target.of.assay: "Colletotrichum lindemuthianum"
  inhibition at 20 ppm: "90 to 100%"
- molecule: "Cc1cccc(Oc2nnc3ccccc3c2C(=O)NCC(F)(F)c2ccc(Br)cc2Cl)c1 [I-015]"
  target.of.assay: "Colletotrichum lindemuthianum"
  inhibition at 20 ppm: "90 to 100%"
- molecule: "Cc1ccc(C(F)(F)CNC(=O)c2c(Oc3cccc(C(F)(F)F)c3)nnc3cc(C4CC4)ccc23)cc1C [I-235]"
  target.of.assay: "Colletotrichum lindemuthianum"
  inhibition at 20 ppm: "90 to 100%"
- molecule: "Cc1ccc(C(F)(F)CNC(=O)c2c(Oc3cccc(Cl)c3)nnc3c2CCCC3)c(C)c1 [I-121]"
  target.of.assay: "Colletotrichum lindemuthianum"
  inhibition at 20 ppm: "90 to 100%"
- molecule: "O=C(NOCc1ccc(C(F)(F)F)cc1)c1c(Oc2cccc(C(F)(F)F)c2)nnc2ccccc12 [I-089]"
  target.of.assay: "Colletotrichum lindemuthianum"
  inhibition at 20 ppm: "90 to 100%"
- molecule: "Cc1ccc([C@@H](F)CNC(=O)c2c(Oc3cccc(C(F)(F)F)c3)nnc3ccccc23)cc1C (racemic) [I-084]"
  target.of.assay: "Colletotrichum lindemuthianum"
  inhibition at 20 ppm: "90 to 100%"
- molecule: "N#Cc1cccc(Oc2nnc3ccccc3c2C(=O)NCC(F)(F)c2ccc(Br)cc2Cl)c1 [I-032]"
  target.of.assay: "Colletotrichum lindemuthianum"
  inhibition at 20 ppm: "90 to 100%"
- molecule: "Cc1ccc(CCNC(=O)c2c(Oc3cccc(C(F)(F)F)c3)cnc3c2OCCO3)c(C)c1 [I-110]"
  target.of.assay: "Colletotrichum lindemuthianum"
  inhibition at 20 ppm: "90 to 100%"
- molecule: "Cc1ccc([C@@H](F)CNC(=O)c2c(Oc3cccc(C(F)(F)F)c3)nnc3c2OCC(C)(C)O3)c(C)c1 (racemic) [I-155]"
  target.of.assay: "Colletotrichum lindemuthianum"
  inhibition at 20 ppm: "90 to 100%"
- molecule: "O=C(NCC(F)(F)c1ccc(Br)cc1Cl)c1c(Oc2cccc(Cl)c2)nnc2ccccc12 [I-013]"
  target.of.assay: "Colletotrichum lindemuthianum"
  inhibition at 20 ppm: "90 to 100%"
- molecule: "Cc1ccc(C(F)(F)CNC(=O)c2c(Oc3cccc(Br)c3)nnc3ccccc23)c(C)c1 [I-216]"
  target.of.assay: "Colletotrichum lindemuthianum"
  inhibition at 20 ppm: "90 to 100%"
- molecule: "O=C(NC[C@H](F)c1ccc(Cl)cc1Cl)c1c(Oc2cccc(C3CC3)c2F)nnc2ccccc12 (racemic) [I-072]"
  target.of.assay: "Colletotrichum lindemuthianum"
  inhibition at 20 ppm: "90 to 100%"
- molecule: "O=C(NCC(F)c1ccc(Cl)cc1Cl)c1c(Oc2cccc(C3CC3)c2F)nnc2c1CCCC2 (centres unmarked) [I-184]"
  target.of.assay: "Colletotrichum lindemuthianum"
  inhibition at 20 ppm: "90 to 100%"
- molecule: "Cc1cc(Cl)ccc1C(F)(F)CNC(=O)c1c(Oc2cccc(C(F)(F)F)c2)nnc2c1CCCC2 [I-145]"
  target.of.assay: "Colletotrichum lindemuthianum"
  inhibition at 20 ppm: "90 to 100%"
- molecule: "O=C(NCC(F)(F)c1ccc(Cl)cc1Cl)c1c(Oc2cccc(Cl)c2F)nnc2c1CCCC2 [I-194]"
  target.of.assay: "Colletotrichum lindemuthianum"
  inhibition at 20 ppm: "90 to 100%"
- molecule: "O=C(NCC(F)(F)c1ccc(Br)cc1Cl)c1c(Oc2cccc(Cl)c2)nnc2c1CCCC2 [I-209]"
  target.of.assay: "Colletotrichum lindemuthianum"
  inhibition at 20 ppm: "90 to 100%"
- molecule: "Cc1ccc(CCNC(=O)c2c(Oc3cccc(C(F)(F)F)c3)cnc3ccccc23)c(C)c1 [I-002]"
  target.of.assay: "Colletotrichum lindemuthianum"
  inhibition at 20 ppm: "90 to 100%"
- molecule: "O=C(c1c(Oc2cccc(C(F)(F)F)c2)nnc2ccccc12)N(O)CCc1ccc(Cl)cc1 [I-167]"
  target.of.assay: "Colletotrichum lindemuthianum"
  inhibition at 20 ppm: "80 to 89%"
- molecule: "Cc1ccc(C(F)CNC(=O)c2c(Oc3cccc(C(F)(F)F)c3)nnc3c2CCC3)c(C)c1 (centres unmarked) [I-138]"
  target.of.assay: "Colletotrichum lindemuthianum"
  inhibition at 20 ppm: "90 to 100%"
- molecule: "O=C(N[C@H]1CCCc2ccc(Br)cc21)c1c(Oc2cccc(C(F)(F)F)c2)nnc2ccccc12 (racemic) [I-096]"
  target.of.assay: "Colletotrichum lindemuthianum"
  inhibition at 20 ppm: "90 to 100%"
- molecule: "Cc1ccc(C(F)(F)CNC(=S)c2c(Oc3cccc(C(F)(F)F)c3)cnc3ccccc23)c(C)c1 [I-159]"
  target.of.assay: "Colletotrichum lindemuthianum"
  inhibition at 20 ppm: "70 to 79%"
- molecule: "O=C(NCC(F)(F)c1ccccc1Cl)c1c(Oc2cccc(C(F)(F)F)c2)nnc2ccccc12 [I-214]"
  target.of.assay: "Colletotrichum lindemuthianum"
  inhibition at 20 ppm: "90 to 100%"
- molecule: "Cc1cc(Br)ccc1C(F)(F)CNC(=O)c1c(Oc2cccc(C(F)F)c2)nnc2c1CCCC2 [I-150]"
  target.of.assay: "Colletotrichum lindemuthianum"
  inhibition at 20 ppm: "90 to 100%"
- molecule: "O=C(NCC(F)(F)c1ccc(Br)cc1Cl)c1c(Oc2cccc(C(F)(F)F)c2)nnc2c1CCCC2 [I-207]"
  target.of.assay: "Colletotrichum lindemuthianum"
  inhibition at 20 ppm: "90 to 100%"
- molecule: "O=C(NC[C@@H](F)c1ccc(Cl)c(Cl)c1)c1c(Oc2cccc(Cl)c2)nnc2ccccc12 (racemic) [I-051]"
  target.of.assay: "Colletotrichum lindemuthianum"
  inhibition at 20 ppm: "90 to 100%"
- molecule: "Cc1ccc(CCNC(=O)c2c(Oc3cccc(C(F)(F)F)c3)nnc3c2OCCO3)c(C)c1 [I-104]"
  target.of.assay: "Colletotrichum lindemuthianum"
  inhibition at 20 ppm: "80 to 89%"
- molecule: "Cc1cccc(Oc2nnc3ccccc3c2C(=O)NCC(F)(F)c2ccc(C)cc2C)c1 [I-017]"
  target.of.assay: "Colletotrichum lindemuthianum"
  inhibition at 20 ppm: "90 to 100%"
- molecule: "Cc1ccc(C(F)(F)CNC(=O)c2c(Oc3cccc(C(F)(F)F)c3)nnc3ccccc23)c(C)c1 [I-008]"
  target.of.assay: "Colletotrichum lindemuthianum"
  inhibition at 20 ppm: "80 to 89%"
- molecule: "Cc1ccc(C(F)(F)CNC(=O)c2c(Oc3cccc(C(F)(F)F)c3)nnc3c2COCC3)c(Cl)c1 [I-124]"
  target.of.assay: "Colletotrichum lindemuthianum"
  inhibition at 20 ppm: "90 to 100%"
- molecule: "O=C(NC[C@H](F)c1ccc(Cl)cc1Cl)c1c(Oc2cccc(C(F)(F)F)c2)cnc2c1OCCO2 (racemic) [I-108]"
  target.of.assay: "Colletotrichum lindemuthianum"
  inhibition at 20 ppm: "90 to 100%"
- molecule: "Cc1ccc(C(F)(F)CNC(=O)c2c(Oc3cccc(C(F)(F)F)c3)nnc3c2CC(O)CC3)c(C)c1 (centres unmarked) [I-117]"
  target.of.assay: "Colletotrichum lindemuthianum"
  inhibition at 20 ppm: "90 to 100%"

The measured values listed here are drawn from patent US20230192617A1.
